Ref: a melting point compilation (Tetko et al.)

Property name: melting point

Record request: melting point value, item O=C(O)C1CCN(C(=O)Nc2ccccc2)CC1
178 to 183 °C

Below are some molecules; for each one, tell me its melting point.
1. Cn1c(CC#N)nc2ccccc21
2. CCOc1ccc(NC(=O)CC#N)cc1
3. NC(=O)C(N)c1cccc(Br)c1 (configuration not stated)
4. COc1ccc(C(C)=O)cc1CSCC(=O)O
5. CCOC=C1C(=O)N(c2ccccn2)C(=O)c2ccccc21
6. CCc1n[nH]c(N)c1Br

1. 129 to 131 °C
2. 95 to 100 °C
3. 107 to 109 °C
4. 106 to 108 °C
5. 231 to 233 °C
6. 117 to 119 °C

---

Please provide measured melting point for the entries that follow.

Record request: melting point value, item CCOc1ccc(S(=O)(=O)N(C)c2ccc(OCC(=O)O)cc2)cc1
82 to 84 °C

Now the same for O=c1[nH]c(C(F)(F)F)cs1
91 to 93 °C

Now the same for N#CCCn1cnc2ccccc2c1=O
142 to 144 °C

Now the same for Cc1nc(-c2ccccc2Cl)sc1C(=O)O
217 to 219 °C

Now the same for Cc1cc(S(=O)(=O)Cl)ccc1F
36 to 38 °C

Now the same for O=C(O)c1cc2c(s1)CCCCC2
162 to 166 °C

Now the same for O=C(O)c1ccc(-c2ccccc2Cl)o1
210 to 212 °C

Now the same for O=S(=O)(c1ccc2c(c1)CCN2)N1CCOCC1
173 to 177 °C

Now the same for CC(C)N(C)C(=O)C1CCN(C(=O)CCl)CC1
110 to 112 °C

Now the same for COc1c([N+](=O)[O-])ccc2[nH]ncc12
219 to 221 °C

Below are some compounds; for each one, tell me its melting point.
1. Oc1ccc(-c2nnc[nH]2)cc1
2. NCc1cccc(OCC(N)=O)c1
3. Cc1ccc(S(=O)(=O)N(C)C(C)C)cc1N

["244 to 246 °C", "89 to 91 °C", "117 to 119 °C"]

---

Property name: melting point

Record request: melting point value, item CCNC(=O)NC(=O)CN(C)Cc1ccccc1
62 to 64 °C

Now the same for c1cnc2c(NC3CCC3)cccc2c1
48 to 50 °C

Now the same for Cc1ccc(OCC(=O)O)c(C=O)c1
144 to 146 °C

Below are some compounds; for each one, tell me its melting point.
1. CC(C)(C)c1cc(N)n(C(C)(C)C)n1
2. CC1CNc2c(cccc2S(N)(=O)=O)C1 (stereo not drawn)
3. Cc1ccc(S(=O)(=O)OCC2CCOCO2)cc1 (stereo not drawn)
4. NC(=O)Nc1cccc(F)c1C(=O)O
5. Cn1nnnc1Sc1ccc(Br)cc1N
6. O=[N+]([O-])c1c[nH]ccc1=NCC1CCCO1 (stereo not drawn)
7. Cc1nn(-c2ccc(F)cc2F)c(C)c1C(=O)O

69 to 71 °C
162 to 164 °C
63 to 65 °C
149 to 151 °C
148 to 150 °C
72 to 74 °C
229 to 231 °C

Below are some compounds; for each one, tell me its melting point.
1. CCOC(C(=O)O)(c1ccccc1)c1ccccc1
2. COc1ccc(C(=O)CCl)cc1F
3. NC(=O)N1CCc2ccccc21

1: 113 to 115 °C; 2: 88 to 92 °C; 3: 160 to 162 °C
